These measurements were taken from PubChem BioAssay.

- ASSAY_PROTOCOL: modulators of MEP2-GFP levels in yeast, confirmation, S. cerevisiae, flow cytometry GFP, cherry picks (AID 2272);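 note: ratio of well signal to plate DMSO mean so 100% equals DMSO level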
- ASSAY_SETUP: S. cerevisiae MEP2-GFP strain, 3 h, at 10 µM, stronger effect = higher value
METRIC: GFP response vs DMSO (%)

COMPOUND: CCc1noc(C)c1C(=O)Nc1nc(-c2ccc(Cl)cc2Cl)cs1
OBS_VALUE: 103
//
COMPOUND: Cc1cc(C)nc(/N=c2/ssnc2Cl)c1
OBS_VALUE: 107
//
COMPOUND: COc1cc(SSc2cc(OC)cc([N+](=O)[O-])c2N)c(N)c([N+](=O)[O-])c1
OBS_VALUE: 118
//
COMPOUND: Cc1ccc(Oc2nc(-c3ccccn3)nc3ccccc23)cc1
OBS_VALUE: 103
//
COMPOUND: Cc1ccc(/C=C/C(=O)c2ccc(C)cc2)cc1
OBS_VALUE: 99.5
//
COMPOUND: Cc1nc(Sc2ccc(Cl)cc2)c(C#N)c(C)c1[N+](=O)[O-]
OBS_VALUE: 108
//
COMPOUND: CCOC(=O)CNc1c(-c2ccc(O)cc2)nc2ccccn12
OBS_VALUE: 97.2
//
COMPOUND: O=C(Nc1nccs1)C1CCCN1S(=O)(=O)c1ccc(F)cc1 (stereo not given)
OBS_VALUE: 100
//
COMPOUND: Cc1ccc(/C=C/C(=O)c2ccc([N+](=O)[O-])o2)cc1
OBS_VALUE: 114
//
COMPOUND: CC(=O)SC(C[N+](=O)[O-])c1cn(C(C)=O)c2ccccc12 (stereo not given)
OBS_VALUE: 96.8

* * *

Entries annotated with measured GFP response vs DMSO
- ASSAY_PROTOCOL: RPL19A-GFP modulators, yeast TOR pathway, confirmation, cell-based, S. cerevisiae, flow cytometry, cherry picks, mother/daughter gates (AID 2270)
- ASSAY_SETUP: S. cerevisiae RPL19A-GFP strain, 3 h, measured here: mother cell gate, at 10 µM, stronger effect = lower value, 100 = same GFP as DMSO wells

COMPOUND: COc1cccc2c1Oc1ncccc1N(C(=O)CCC(=O)NCc1ccc(F)cc1)C2
GFP response vs DMSO (%): 98.2

COMPOUND: COc1cc(NC(=O)c2cccc(F)c2)ccc1NC(=O)c1cc2ccccc2o1
GFP response vs DMSO (%): 97.6

COMPOUND: COc1cc(/C=N/Nc2nc(C)cc(=O)[nH]2)ccc1O
GFP response vs DMSO (%): 98.8

COMPOUND: CCOC(=O)CSC1=NC(=O)/C(=C/c2ccc(OC)cc2)S1
GFP response vs DMSO (%): 98.2

COMPOUND: CN1C(=O)/C(=N\OC(=O)c2cccc3ccccc23)c2ccccc21
GFP response vs DMSO (%): 93.4

COMPOUND: O=C(c1ccccc1F)N1CCN(c2ccccc2F)CC1
GFP response vs DMSO (%): 102

COMPOUND: Cc1ccc(/C=C2/SC(=S)N(C3CCCCC3)C2=O)o1
GFP response vs DMSO (%): 98.6

COMPOUND: Oc1ccc(/C=N/Nc2nc(-c3cccnc3)nc3ccccc23)c(O)c1
GFP response vs DMSO (%): 94.6

COMPOUND: O=C(N/N=C/c1c(Cl)cccc1Cl)c1ccc(F)cc1
GFP response vs DMSO (%): 95.7

COMPOUND: Cc1ccc(-n2ncc(C#N)c2/N=C/N(C)C)cc1
GFP response vs DMSO (%): 103

COMPOUND: Cc1nc(C)c(-c2csc(NCCc3ccccc3)n2)s1
GFP response vs DMSO (%): 95.9

COMPOUND: COc1ccc(C(=O)C2CCCN(C(=O)c3cccs3)C2)cc1F (centres undefined)
GFP response vs DMSO (%): 101

COMPOUND: O=C(CN1CCN(Cc2ccccc2Cl)C1=O)NC1CCCCCCC1
GFP response vs DMSO (%): 99.7

COMPOUND: O=C(O)c1ccc(N/N=C/C(Br)=C/c2ccccc2)cc1
GFP response vs DMSO (%): 96.7

* * *

Entries annotated with measured GFP response vs DMSO
- ASSAY_PROTOCOL: modulators of MEP2-GFP levels in yeast, confirmation, S. cerevisiae, flow cytometry GFP, cherry picks (AID 2272);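 note: ratio of well signal to plate DMSO mean so 100% equals DMSO level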
- ASSAY_SETUP: S. cerevisiae MEP2-GFP strain, 3 h, at 10 µM, stronger effect = higher value

MOLECULE: O=S(=O)(/N=C(/Nc1ccc(F)cc1F)c1ccc(Cl)cc1)c1ccccc1
GFP response vs DMSO, %: 102
//
MOLECULE: Cc1ccc(S(=O)(=O)NCC23C=CC(O2)C2C(=O)N(c4ccccc4)C(=O)C23)cc1 (stereo not drawn)
GFP response vs DMSO, %: 102
//
MOLECULE: O=[N+]([O-])c1ccc(Sc2ccccc2)nc1
GFP response vs DMSO, %: 108
//
MOLECULE: CS(=O)(=O)c1nc(-c2cccs2)cc(C(F)(F)F)n1
GFP response vs DMSO, %: 143
//
MOLECULE: Cc1ccc(-c2noc(CCC(=O)Nc3ccccc3C)n2)cc1
GFP response vs DMSO, %: 106
//
MOLECULE: O=C(O)c1ccc2ccc3ccccc3c2c1
GFP response vs DMSO, %: 96.8
//
MOLECULE: Cc1ccc(C(=O)O/N=C(\N)Cc2cccs2)c(Cl)c1
GFP response vs DMSO, %: 105
//
MOLECULE: COc1ccc(/C=C/C(=O)c2ccc(OC)cc2O)cc1
GFP response vs DMSO, %: 104

* * *

- SYSTEM: ATP-binding cassette sub-family B member 6 (Homo sapiens)
- ASSAY_PROTOCOL: ABCB6 transporter inhibitors, pilot screen, K562-ABCB6 cells, flow cytometry, validation set (AID 588550);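 note: 0% = DMSO wells and 100% = benzethonium chloride 70 µM positive control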
- ASSAY_SETUP: K562-ABCB6 porphyrin accumulation, 1 h, at 10 µM, stronger effect = higher value
The source made the active and inactive calls.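 The calls were made as follows: active = inhibition above the screen-wide mean plus 3 SD, about 51%; inactive = the rest.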 Peptide text beside a SMILES is read from it. * marks the point of attachment. Boc = CC(C)(C)OC(=O)*
Entries annotated with measured inhibition

COMPOUND: Clc1ccc(OCCCN2CCCCC2)c(Br)c1
inhibition: 7% (inactive)

COMPOUND: COc1ccc(C(=O)Nc2ccccc2C(=O)NCCCn2ccnc2)cc1
inhibition: 12% (inactive)

COMPOUND: COc1cc(C(=O)OCCCN(C)C)cc(OC)c1OC
inhibition: -1% (inactive)

COMPOUND: CC1(C)CC(=O)C(C2(O)C(=O)Nc3ccccc32)CO1 (stereo not given)
inhibition: 12% (inactive)

COMPOUND: Cc1ccccc1NC(=O)C1c2ccccc2Oc2ccccc21
inhibition: 12% (inactive)

COMPOUND: OC(CCCN1CCCCC1)(c1ccccc1)c1ccccc1
inhibition: 4% (inactive)

COMPOUND: Cn1c2c(c(=O)[nH]c1=O)C(c1ccc(O)cc1)C1=C(N2)c2ccccc2C1=O (stereo not given)
inhibition: 9% (inactive)

COMPOUND: C=CCc1cccc2cc(C(=O)Nc3ccc(CC(=O)O)cc3)c(=O)oc12
inhibition: 5% (inactive)

COMPOUND: COc1cc2c3c(c1)C1(C(=O)N3C(C)(C)C=C2C)C(C#N)=C(N)Oc2cc(C)oc(=O)c21 (stereo not given)
inhibition: 5% (inactive)

COMPOUND: Cc1nc(C)c(C)nc1C
inhibition: 8% (inactive)

COMPOUND: Cc1ccsc1/C=N\NC(=O)c1ccc2c(c1)OCO2
inhibition: 7% (inactive)

COMPOUND: CCCN(CCC)S(=O)(=O)c1ccc(C(=O)O)cc1
inhibition: 4% (inactive)

COMPOUND: CCC12CN3CC(CC)(CN(C1)C31C(=O)N(C)c3ccc(C)cc31)C2=O (stereo not given)
inhibition: -1% (inactive)

COMPOUND: CC(C)C[C@H](NC(=O)NC(C)C)C(=O)O
inhibition: 0% (inactive)

COMPOUND: CC[n+]1c(C)sc2cc(C)ccc21
inhibition: 15% (inactive)

COMPOUND: Cc1cccc(C)c1NS(=O)(=O)c1ccc(NC(=O)c2ccc(Cl)c([N+](=O)[O-])c2)cc1
inhibition: 9% (inactive)

COMPOUND: Cc1cc(=O)oc(C)c1C(=O)NCCC(C)C
inhibition: 15% (inactive)

COMPOUND: Cc1ccc2c(c1)c1c(n2C)C(=O)CCC1
inhibition: 0% (inactive)

COMPOUND: CN1CCN(C2=Nc3cc(Cl)ccc3Nc3ccccc32)CC1
inhibition: -2% (inactive)

COMPOUND: CN(C)CCCNc1ncnc2c1cnn2-c1ccccc1
inhibition: 12% (inactive)

COMPOUND: CC(=O)Nc1ccc(OS(=O)(=O)c2c(C)cc(C)cc2C)cc1
inhibition: 8% (inactive)

COMPOUND: CC(C)CC(NC(=O)C1CCCN1C(=O)OC(C)(C)C)C(=O)NCC(N)=O (stereo not drawn) (Boc-Pro-Leu-Gly-NH2; configuration not given here)
inhibition: 8% (inactive)

COMPOUND: COc1ccc(C2C3C(C)=NN=C3CC(C)(O)C2C(C)=O)cc1 (stereo not given)
inhibition: 3% (inactive)

COMPOUND: CCCCC[C@H](O)/C=C/[C@@H]1[C@@H](C/C=C\CCCC(=O)O)[C@H]2CO[C@@H]1C2
inhibition: -1% (inactive)

COMPOUND: Cc1cc(-c2nn(-c3ccccc3F)cc2CN2CCC(O)CC2)c(C)s1
inhibition: 10% (inactive)
